Target: T1, recombinant mouse soluble gpNMB (recombinant mouse gpNMB-FLAG-His) (mouse, UniProt Q99P91 23-502)
T1 sequence: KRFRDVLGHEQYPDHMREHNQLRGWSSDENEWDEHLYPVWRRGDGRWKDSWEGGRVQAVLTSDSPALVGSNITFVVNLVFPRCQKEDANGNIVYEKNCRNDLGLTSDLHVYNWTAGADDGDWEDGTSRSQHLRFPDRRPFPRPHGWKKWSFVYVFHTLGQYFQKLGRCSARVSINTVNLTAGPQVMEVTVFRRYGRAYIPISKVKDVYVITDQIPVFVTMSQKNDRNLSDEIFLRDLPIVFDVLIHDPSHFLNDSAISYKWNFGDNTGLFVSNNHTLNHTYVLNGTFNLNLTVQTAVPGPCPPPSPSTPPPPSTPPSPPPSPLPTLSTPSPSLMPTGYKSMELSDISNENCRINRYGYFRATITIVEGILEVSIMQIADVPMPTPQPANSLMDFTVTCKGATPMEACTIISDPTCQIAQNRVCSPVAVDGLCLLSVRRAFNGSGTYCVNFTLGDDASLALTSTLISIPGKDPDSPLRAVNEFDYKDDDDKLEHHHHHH
Assay: SPR, antibody 100 nM over captured gpNMB-FLAG-His, 25C
quantity: koff (s⁻¹)
Kindly answer with a numeric value in s⁻¹, unit omitted.

Use the examples below as a reference point.
{"columns": ["binder", "quantity", "recorded.number"],
 "data": [
  ["GPN15-2 (antibody, V domains shown, monoclonal with mouse IgG constant regions) VH: QVQLQQPGAELVKPGASVKMSCKASGYTFTNHNMHWVKQTPGQGLEWIGAFYTGNGDTSYNQKFKGKATLTADKSSSTAYIQLSSLTSEDSAVYYCARERYDGYYIAMDYWGQGTSVTVSS VL: QIVLTQSPAFMSVSPGEKVTMTCSASSSVYYMFWYQQKPRSSPKPWIYLTSKLASGVPARFSGSGSGTSYSVTISSMEAEDAATYYCQQWSSNPQWTFGGGTKLEIK", "koff", 0.00028],
  ["GPN15-3 (antibody, V domains shown, monoclonal with mouse IgG constant regions) VH: QVTLKESGPGILQPSQTLSLTCSFSGFSLTTSGMGVGWIRQPSGKGLEWLADMWWDDDKNYNPSLKSRLTISKDNSKKQVFLKIASVDTADTATYYCARRVYSSWFAYWGQGTLVTVSA VL: DIVMTQSQKFMSTSVGDRVSVTCKASQNVGANVAWYQQKPGQSPKTLIYSASYRYGGVPDRFTGSGSGTDFTFTITNVQSEDLAEYFCQQYNNYPLTFGAGTKLDLK", "koff", 0.00036],
  ["GPN18-5 (antibody, V domains shown, monoclonal with mouse IgG constant regions) VH: QVQLQQSGAELAKPGTSVKMSCKASGYTFTTYWMNWVKQRPGQDLEWIGAINPSNDYTEYNQKFKDKAILTADKSSNTAYMQLSSLTSEDSAVYYCGRSYSPDYWGQGTTLTVSS VL: DIVMTQSQKFMSTSVGDRVSVTCKASQNVDNHVAWHQQKPGQSPKALIYSASYRYSGVPDRFTGSGSGTDFTLTIRDVQSEDLADYFCQQYKSYPFTFGSGTELEIK", "koff", 0.0007]
]}

Which measured koff value corresponds to GPN09-1 (antibody, V domains shown, monoclonal with mouse IgG constant regions) VH: QVQLKASGPGLVQPSQTLSLTCTVSGLSLTSININWIRQPPGKGLEWMGVIWSDGDTDFNSAVKSRLSISRDTSKSQVFLNMNSLQTEDTAMYFCARGIRDWGQGVMVTVSS VL: DIVMTQTPLSLSVAIGQSASISCKSSQSLKYSDGKTYLNWVFQSPGQSPKRLIYQVSKLDSGVPDRFSGTGSETDFTLKISRVEAEDLGVYYCCQGSYSPHTFGSGTKLEIK ?
0.00042

Which measured koff value corresponds to GPN18-4 (antibody, V domains shown, monoclonal with mouse IgG constant regions) VH: QVQLQQSGAELTKPGTSVKMSCKASGYTLSSYWMNWIKQRPGQGLEWIGTINPSNNYTAYNLKFKDKAMLTADKSSSTAYMQLSSLTSEDSAVYYCATWGYWGQGTTLTVSS VL: DIVMTQSHKFMSTSVGDRVSITCKASQDVSTAVAWHQQKPGQPPKLLIYSASYRYTGVPDRFTGSGSGTDFTFTISSVQTEDLAIYYCQHHYTTTWTFGGGTKLEIR ?
0.00012
